SYSTEM TESTED: human insulin-like growth factor-I (IGF-I) (human, UniProt P05019 49-118)
EXPERIMENT: cell-based or functional assay
MEASURED PARAMETER: EC50 (nM), n = 2, IGF-I pTYR, BxPC3 cells
Give just the numeric value; nM need not be written.

Data request: Find the recorded EC50 (nM), n = 2, IGF-I pTYR, BxPC3 cells belonging to mAb 7.158.2 (antibody, V domains shown, Kappa light chain (L5/JK3); also called 7.158.1; 7_158_1) VH: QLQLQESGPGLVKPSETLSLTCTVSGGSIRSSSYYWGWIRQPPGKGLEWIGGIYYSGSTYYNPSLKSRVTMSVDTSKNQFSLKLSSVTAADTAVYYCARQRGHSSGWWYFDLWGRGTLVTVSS VL: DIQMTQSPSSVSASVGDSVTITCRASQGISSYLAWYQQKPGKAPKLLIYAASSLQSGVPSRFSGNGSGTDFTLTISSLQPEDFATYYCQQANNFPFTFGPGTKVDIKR and report it.
Data returned: 3.6
